From: patent US20250147039A1

- TEST: Dissociation of chelates in aq. 0.1M HCl at RT (acid decomplexation kinetic inertness) (Chart 20)
- Assay type: physicochemical
- CONDITION DESCRIPTION: 1 day
READOUT KIND: fraction of intact chelate (%)

molecule="O=C([O-])CN1CCN2CCN(CC(=O)[O-])CCN(CC1)Cc1cccc(n1)-c1cnnn1Cc1cc(-c3ccccc3)cc(n1)C2.[Pb+2] [TD876]" measured_result=0
molecule="O=C1C[N@@]2CC[N@]3CC[N@@](CC[N@](CC2)Cc2cccc(n2)-c2cnnn2Cc2cc(-c4ccccc4)cc(n2)C3)CC(=O)[O][Cd][O]1 [TD880]" measured_result=100
molecule="O=C1C[N@@]2CC[N@]3CC[N@@](CC[N@](CC2)Cc2cccc(n2)-c2cnnn2Cc2cc(-c4ccccc4)cc(n2)C3)CC(=O)[O][Ce][O]1 [TD870]" measured_result=37
molecule="O=C1C[N@@]2CC[N@]3CC[N@@](CC[N@](CC2)Cc2cccc(n2)-c2cnnn2Cc2cc(-c4ccccc4)cc(n2)C3)CC(=O)[O][Eu][O]1 [TD599]" measured_result=100
molecule="O=C1C[N@@]2CC[N@]3CC[N@@](CC[N@](CC2)Cc2cccc(n2)-c2cn(nn2)Cc2cc(-c4ccccc4)cc(n2)C3)CC(=O)[O][Gd][O]1 [TD875]" measured_result=58
molecule="O=C1C[N@@]2CC[N@]3CC[N@@](CC[N@](CC2)Cc2cccc(n2)-c2cnnn2Cc2cc(-c4ccccc4)cc(n2)C3)CC(=O)[O][Yb][O]1 [TD602]" measured_result=100
